# method: Cytotoxicity against human Akata cells
# Format: cell-based
# setup-conditions: akata
Documented CC50 across a set of compounds
Reply with just the number (in µM).

Challenge: Form field: reported CC50 of Nc1nc2c(ncn2/C=C2\C[C@@H]2[C@@H](O)CO)c(=O)[nH]1
Response given: 61

Challenge: And Nc1ncnc2c1ncn2/C=C1\C[C@H]1[C@H](O)CO ?
Response given: 72.7

Challenge: And Nc1nc2c(ncn2/C=C2\C[C@@H]2[C@H](O)CO)c(=O)[nH]1 ?
Response given: 67

---

# target: Adenosine deaminase (Bos taurus) (UniProt P56658)
# Sequence (P56658 whole entry): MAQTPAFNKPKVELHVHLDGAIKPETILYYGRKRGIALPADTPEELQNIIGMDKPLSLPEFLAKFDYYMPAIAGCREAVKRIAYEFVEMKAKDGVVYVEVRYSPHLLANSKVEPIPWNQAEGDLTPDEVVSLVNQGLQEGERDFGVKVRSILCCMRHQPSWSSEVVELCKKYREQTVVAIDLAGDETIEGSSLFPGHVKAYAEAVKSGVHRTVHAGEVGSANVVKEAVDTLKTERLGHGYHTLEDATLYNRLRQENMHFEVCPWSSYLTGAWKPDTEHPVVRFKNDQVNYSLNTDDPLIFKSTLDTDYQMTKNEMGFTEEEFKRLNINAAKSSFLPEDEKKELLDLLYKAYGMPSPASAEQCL
# method: Activity of calf intestine adenosine deaminase assessed as deamination after 48 hrs
# Parameters: concentration or dose not given beside the values
value-kind: Activity
Quote the value and follow it with the unit of measurement.

Nc1ncnc2c1ncn2/C=C1\C[C@H]1[C@@H](O)CO    100%
Nc1ncnc2c1ncn2/C=C1/C[C@@H]1[C@@H](O)CO    80%
Nc1ncnc2c1ncn2/C=C1/C[C@H]1[C@H](O)CO    0%
Nc1ncnc2c1ncn2/C=C1\C[C@H]1[C@H](O)CO    85%
Nc1ncnc2c1ncn2/C=C1/C[C@@H]1[C@H](O)CO    80%

Challenge: Form field: reported Activity of Nc1ncnc2c1ncn2/C=C1/C[C@H]1[C@@H](O)CO
Response given: 0%

Challenge: And Nc1ncnc2c1ncn2/C=C1\C[C@@H]1[C@H](O)CO ?
Response given: 100%

Challenge: And Nc1ncnc2c1ncn2/C=C1\C[C@@H]1[C@@H](O)CO ?
Response given: 100%
